Test: in vivo;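 further: radiolabelled ligand targeting bombesin receptors, given by intravenous injection at varied injected mass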
Settings: rat, blood, iv, 0.1 ug, total radioactivity
assay metric: tissue uptake at 48 h (%ID/g)
Hi! Could you send only the number? It should be in %ID/g, unit omitted.

Inquiry: # input molecule: CSCC[C@H](NC(=O)[C@H](CC(C)C)NC(=O)[C@H](Cc1c[nH]cn1)NC(=O)CNC(=O)[C@@H](NC(=O)[C@H](C)NC(=O)[C@H](Cc1c[nH]c2ccccc12)NC(=O)[C@H](CCC(N)=O)NC(=O)[C@H](CC(N)=O)NC(=O)CNC(=O)[C@H](Cc1ccc(O)cc1)NC(=O)[C@H](CCCNC(=N)N)NC(=O)[C@H](CCC(N)=O)NC(=O)[C@@H]1CCCN1C(=O)CN(CCN(CCN(CC(=O)O)CC(=O)O)CC(=O)O)CC(=O)O)C(C)C)C(N)=O [[^111In-DTPA^0, Pro^1, Tyr^4] bombesin, metal not drawn] ; wanted: its tissue uptake at 48 h
Reply text: 0.0009

---

Assay: in vivo
Conditions: rat, blood, 0.025 ug, total radioactivity
assay metric: tissue uptake at 48 h (%ID/g)
Hi! Could you send only the number? It should be in %ID/g, unit omitted.

Inquiry: # input compound: CSCC[C@H](NC(=O)[C@H](CC(C)C)NC(=O)[C@H](Cc1c[nH]cn1)NC(=O)CNC(=O)[C@@H](NC(=O)[C@H](C)NC(=O)[C@H](Cc1c[nH]c2ccccc12)NC(=O)[C@H](CCC(N)=O)NC(=O)[C@H](CC(N)=O)NC(=O)CNC(=O)[C@H](Cc1ccc(O)cc1)NC(=O)[C@H](CCCNC(=N)N)NC(=O)[C@H](CCC(N)=O)NC(=O)[C@@H]1CCCN1C(=O)CN(CCN(CCN(CC(=O)O)CC(=O)O)CC(=O)O)CC(=O)O)C(C)C)C(N)=O [[^111In-DTPA^0, Pro^1, Tyr^4] bombesin, metal not drawn] ; wanted: its tissue uptake at 48 h
Reply text: 0.001

---

Assay: in vivo
Settings: rat, colon, 0.1 ug, total radioactivity
assay metric: tissue uptake at 48 h (%ID/g)
Hi! Could you send only the number? It should be in %ID/g, unit omitted.

Inquiry: # input compound: CSCC[C@H](NC(=O)[C@H](CC(C)C)NC(=O)[C@H](Cc1c[nH]cn1)NC(=O)CNC(=O)[C@@H](NC(=O)[C@H](C)NC(=O)[C@H](Cc1c[nH]c2ccccc12)NC(=O)[C@H](CCC(N)=O)NC(=O)[C@H](CC(N)=O)NC(=O)CNC(=O)[C@H](Cc1ccc(O)cc1)NC(=O)[C@H](CCCNC(=N)N)NC(=O)[C@H](CCC(N)=O)NC(=O)[C@@H]1CCCN1C(=O)CN(CCN(CCN(CC(=O)O)CC(=O)O)CC(=O)O)CC(=O)O)C(C)C)C(N)=O [[^111In-DTPA^0, Pro^1, Tyr^4] bombesin, metal not drawn] ; wanted: its tissue uptake at 48 h
Reply text: 0.061

---

Test: in vivo
Details: rat, adrenal, 0.025 ug, total radioactivity
assay metric: tissue uptake at 48 h (%ID/g)
Hi! Could you send only the number? It should be in %ID/g, unit omitted.

Inquiry: # input molecule: CSCC[C@H](NC(=O)[C@H](CC(C)C)NC(=O)[C@H](Cc1c[nH]cn1)NC(=O)CNC(=O)[C@@H](NC(=O)[C@H](C)NC(=O)[C@H](Cc1c[nH]c2ccccc12)NC(=O)[C@H](CCC(N)=O)NC(=O)[C@H](CC(N)=O)NC(=O)CNC(=O)[C@H](Cc1ccc(O)cc1)NC(=O)[C@H](CCCNC(=N)N)NC(=O)[C@H](CCC(N)=O)NC(=O)[C@@H]1CCCN1C(=O)CN(CCN(CCN(CC(=O)O)CC(=O)O)CC(=O)O)CC(=O)O)C(C)C)C(N)=O [[^111In-DTPA^0, Pro^1, Tyr^4] bombesin, metal not drawn] ; wanted: its tissue uptake at 48 h
Reply text: 0.03
